Test System: Zea mays EPSPS variant Zm-A189T (Zea mays, UniProt O24566, A188T)
Sequence (O24566 with tags, fused parts or gaps A188T): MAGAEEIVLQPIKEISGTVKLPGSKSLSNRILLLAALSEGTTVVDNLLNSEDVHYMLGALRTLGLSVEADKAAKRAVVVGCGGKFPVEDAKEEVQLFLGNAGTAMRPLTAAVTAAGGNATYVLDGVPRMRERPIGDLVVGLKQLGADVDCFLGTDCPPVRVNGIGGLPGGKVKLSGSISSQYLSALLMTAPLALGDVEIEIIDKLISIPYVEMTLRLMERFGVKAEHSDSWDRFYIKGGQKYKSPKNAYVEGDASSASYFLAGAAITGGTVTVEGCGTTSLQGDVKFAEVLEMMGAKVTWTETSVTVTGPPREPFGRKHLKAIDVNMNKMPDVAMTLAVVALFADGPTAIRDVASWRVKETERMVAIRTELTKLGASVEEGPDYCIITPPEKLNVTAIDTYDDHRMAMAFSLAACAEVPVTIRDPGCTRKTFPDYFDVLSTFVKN
Test Description: Substrate saturation kinetic analysis with glyphosate, Zm-A189T
Measure Name: Ki (µM)
Supply the numeric figure in µM, leaving out any unit text.

Return reported Ki; argument: O=C(O)CNCP(=O)(O)O [glyphosate, N-phosphonomethylglycine]
337

====

Test System: Oryza sativa EPSPS, native, SEQ ID NO:7 (Oryza sativa, UniProt Q93VK6)
Sequence (Q93VK6 64-511): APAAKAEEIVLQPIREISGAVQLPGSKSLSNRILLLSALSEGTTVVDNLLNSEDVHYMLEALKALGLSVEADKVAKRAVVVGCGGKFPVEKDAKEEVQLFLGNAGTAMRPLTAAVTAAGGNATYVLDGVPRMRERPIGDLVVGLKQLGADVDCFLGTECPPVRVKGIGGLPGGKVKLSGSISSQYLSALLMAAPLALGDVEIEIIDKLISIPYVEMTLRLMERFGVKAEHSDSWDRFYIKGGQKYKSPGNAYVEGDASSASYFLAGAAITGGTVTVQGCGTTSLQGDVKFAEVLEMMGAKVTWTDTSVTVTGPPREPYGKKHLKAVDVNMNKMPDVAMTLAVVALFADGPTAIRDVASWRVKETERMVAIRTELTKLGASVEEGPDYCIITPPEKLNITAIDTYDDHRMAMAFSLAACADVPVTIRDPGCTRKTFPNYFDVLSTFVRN
Measure Name: pKi
Quick note: pKi values are minus log10 of concentrations in mol/L.

Give the reported pKi for O=C(O)CNCP(=O)(O)O [glyphosate, N-phosphonomethylglycine] (system: Oryza sativa EPSPS, native, SEQ ID NO:7 (Oryza sativa, UniProt Q93VK6)).
7.00

====

Test System: Zea mays EPSPS variant Zm-H6 (868-H6) with K246G (H6-K246G) (Zea mays, UniProt O24566, A1R/A3W/A415G/A71Q/D401G/E301S/E390G/G101A/I207L/K245G/K83R/L97C/T278A/T360S/T440Q/V437R)
Construct: 868-H6 plus K246G; E. coli BL21(DE3), Ni-NTA purified
Test Description: Substrate saturation kinetic analysis with glyphosate, H6-K246G
Measure Name: Ki (µM)
Supply the numeric figure in µM, leaving out any unit text.

Return reported Ki; argument: O=C(O)CNCP(=O)(O)O [glyphosate, N-phosphonomethylglycine]
284

Measured values drawn from patent US11549123B2 for this set.
